IC50 reference
# Tested on: 997726-040-R-J2-PDC tumor spheroids, viability
# Experiment Notes: Anticancer human tumor 997726-040-R-J2-PDC patient-derived squamous cell lung carcinoma cell line growth inhibition [PI3K]
# Condition Parameters: curve of first compound; second compound 0.00316 µM; spheroids with HUVEC and MSC

Look over these answered cases.
| Compound | Result |
| --- | --- |
| CC(Cn1ccc(-c2ccc(C#N)c(Cl)c2)n1)NC(=O)c1cc(C(C)O)[nH]n1 (stereo not drawn) + CC(Nc1ccc2c(c1)OCCn1cc(N3C(=O)OCC3C(F)F)nc1-2)C(N)=O | > 10000 nM |
| Cn1nccc1Nc1nccc(-c2ccn(C(CO)c3ccc(Cl)c(F)c3)c(=O)c2)n1 (stereo not drawn) + COc1c(OCCCN2CCOCC2)ccc2c3n(c(=NC(=O)c4cnc(N)nc4)nc12)CCN3 | 299 nM |
| Cn1cnc2c(F)c(Nc3ccc(Br)cc3Cl)c(C(=O)NOCCO)cc21 + CC(Nc1ccc2c(c1)OCCn1cc(N3C(=O)OCC3C(F)F)nc1-2)C(N)=O | 154 nM |
| C[C@@H](NC(=O)c1ncnc(N)c1Cl)c1ncc(C(=O)Nc2cc(C(F)(F)F)c(Cl)cn2)s1 + CC(Nc1ccc2c(c1)OCCn1cc(N3C(=O)OCC3C(F)F)nc1-2)C(N)=O | > 10000 nM |
| CC(=O)c1c(C)c2cnc(Nc3ccc(N4CCNCC4)cn3)nc2n(C2CCCC2)c1=O + CC(Nc1ccc2c(c1)OCCn1cc(N3C(=O)OCC3C(F)F)nc1-2)C(N)=O | > 100 nM |
| Cn1ncc(Cl)c1-c1cc(C(=O)NC(CN)Cc2cccc(F)c2)sc1Cl (stereo not drawn) + COc1c(OCCCN2CCOCC2)ccc2c3n(c(=NC(=O)c4cnc(N)nc4)nc12)CCN3 | 53.2 nM |
| CNC(=O)c1ccc(N2C(=S)N(c3ccc(C#N)c(C(F)(F)F)c3)C(=O)C2(C)C)cc1F + COc1c(OCCCN2CCOCC2)ccc2c3n(c(=NC(=O)c4cnc(N)nc4)nc12)CCN3 | > 10000 nM |

Continue with the next compound.
So what does the record say about IC50 for C#Cc1c(F)ccc2cc(O)cc(-c3ncc4c(N5CC6CCC(C5)N6)nc(OCC56CCCN5CC(F)C6)nc4c3F)c12 (stereo not drawn) + COc1c(OCCCN2CCOCC2)ccc2c3n(c(=NC(=O)c4cnc(N)nc4)nc12)CCN3 ? > 10000 nM

---

Entries annotated with measured viability, T/C
# System: 997726-040-R-J2-PDC tumor spheroids, viability
# Experiment Notes: Anticancer human tumor 997726-040-R-J2-PDC cell line growth inhibition [PI3K];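 further: spheroids exposed to compounds for seven days before readout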
# Condition Parameters: second compound 10 µM; first compound 0.0316 µM; stronger effect = lower value; spheroids with HUVEC and MSC
Numeric answer only, unit % assumed.

Example entries and their recorded answers appear below.
| Compound | Property Name | Units Symbol | Numeric Value |
| --- | --- | --- | --- |
| C[C@@H](NC(=O)c1ncnc(N)c1Cl)c1ncc(C(=O)Nc2cc(C(F)(F)F)c(Cl)cn2)s1 + Cc1nc(NC(=O)N2CCCC2C(N)=O)sc1-c1ccnc(C(C)(C)C(F)(F)F)c1 | viability, T/C | % | 15 |
| CC(Cn1ccc(-c2ccc(C#N)c(Cl)c2)n1)NC(=O)c1cc(C(C)O)[nH]n1 (stereo not drawn) + CC(Nc1ncnc2nc[nH]c12)c1cc2cccc(Cl)c2c(=O)n1-c1ccccc1 | viability, T/C | % | 51.5 |

Consider the compound Cn1ncnc1[C@H]1c2n[nH]c(=O)c3cc(F)cc(c23)N[C@@H]1c1ccc(F)cc1 + CC(Nc1ncnc2nc[nH]c12)c1cc2cccc(Cl)c2c(=O)n1-c1ccccc1 and give its measured viability, T/C. 55

Data provenance: PubChem BioAssay AID1963964
